# Assay method text: Clearance in Sprague-Dawley rat at 0.3 mg/kg, iv by LC-MS/MS analysis
# Type: ADME, organism-based
# Assay context: in vivo
Quantity kind: clearance (mL/min/kg)
Dear colleague, please return just the value in mL/min/kg, with no unit written.

## Task Which measured clearance value corresponds to `O=S1(=O)NCc2cccc(-c3ccc(Oc4ccccc4)cc3)c2O1` ?
## Result 37.4

###

# Assay method text: Oral bioavailability in Sprague-Dawley rat at 1 mg/kg by LC-MS/MS analysis
# Assay type: ADME, organism-based
# Assay context: in vivo
Quantity kind: bioavailability (%)
Respond with the bare value in %.

## Task Item under review: `O=S1(=O)NCc2cccc(-c3ccc(-c4ccccc4F)cc3)c2O1` . Reported bioavailability?
## Result 67.2

// provenance: ChEMBL document CHEMBL5346925
